Test: Toxicity liver stage against HepG2, at 10uM
Assay type: cell-based
Design: test concentration 10 uM, cell line HepG2-A16-CD81EGFP
Conditions: human, HepG2-A16-CD81EGFP cells; read-out: INHIBITION
MEASURED_ENDPOINT: cytotoxicity at 10 µM (%)
Answer format: numeric, % implied, no suffix.

Cc1cc(Oc2ccccc2)nc(C2CCCCN2)n1 (stereo unspecified) ... -2.64
CN(C)C(=O)c1ccc2c(c1)N(C)C(CC(=O)NCCC(C)(C)C)CO2 (stereo unspecified) ... -0.8
COc1c(F)cc(F)cc1-c1nc2c([nH]1)CCNC2 ... 3.94

Request: Given CNC(=O)N1CCc2cc(C(=O)N(C)C)c(NCC3CC3)nc2CC1 , state its recorded cytotoxicity at 10 µM.
Result: -0.395

Request: Input Cc1ccc(C(=O)N2CCCC3(C2)C(=O)N(C)c2ccccc23)c(=O)[nH]1 (stereo unspecified)
Result: -7.52

Request: How about Cc1cccc(COC2COC3(CCN(Cc4ccoc4)CC3)C2)n1 (stereo unspecified) ?
Result: -0.211
